tested on: DLD1; experiment: TCF/Wnt firefly luciferase reporter signal relative to plate median (fraction of plate median); higher = higher Wnt reporter signal; conditions: 5 µM; treatment time 24 h; reporter: 7TFP
TCF/Wnt firefly luciferase reporter signal values by entry
Answer as a number with no unit attached.

These solved cases illustrate the format of a correct answer.
MOLECULE	ASSAY VALUE
CC(C)=CCOc1c2occc2cc2ccc(=O)oc12	1.12
CC(C)C[C@H](CN)CC(=O)O	1.09
CCCCCCCCCCCC[C@@H](O)[C@H]1CC[C@H]([C@H](O)CCCC[C@H](O)CCCCC[C@@H](O)CC2=CC(C)OC2=O)O1 (stereo not given in full)	0.987
COc1cc2c(cc1OC)[C@H](C)NCC2	1.06
CC(=O)[C@H]1CC[C@H]2[C@@H]3CC[C@H]4C[C@H](O)CC[C@]4(C)[C@H]3CC[C@]12C	0.902

Req: Provide value of TCF/Wnt firefly luciferase reporter signal for this record tested with DLD1: CC(=O)O[C@@H]1CC[C@@]2(C)[C@@H](CC[C@@H]3[C@@H]2CC[C@]2(C)C(=O)CC[C@@H]32)C1
Resp: 1.15

Req: Provide value of TCF/Wnt firefly luciferase reporter signal for this record tested with DLD1: C=C1C[C@@H]2[C@H](CC[C@]3(C)C(=O)CC[C@@H]23)[C@@]2(C)C=CC(=O)C=C12
Resp: 0.961

Req: Provide value of TCF/Wnt firefly luciferase reporter signal for this record tested with DLD1: OC1CCCCC1N1CCC(c2ccccc2)CC1 (stereo not given)
Resp: 0.867

Req: Provide value of TCF/Wnt firefly luciferase reporter signal for this record tested with DLD1: Oc1ccc(Cl)cc1
Resp: 1.03

Req: Provide value of TCF/Wnt firefly luciferase reporter signal for this record tested with DLD1: CCCCCCCCCCCCOC(=O)[C@H]1OC(=O)[C@H](O)[C@H]1C(=O)OO
Resp: 0.905

Numbers sourced from the supplement of paper PMC6522484.
